# protocolDetails: C0 in male Balb/c mouse at 1 mg/kg, iv by LC-MS/MS analysis
# Assay type: ADME, organism-based
# runParameters: in vivo
reportedEndpoint: C0

[ask] Tell me its C0 given CCCc1nn(C)c2c(Nc3ccc(O)cc3)nc(-c3ccc([N+](=O)[O-])o3)nc12 as the entry.
[reply] 552 ng/mL

* * *

# protocolDetails: Cytotoxicity in human HepG2 cells incubated for 24 hrs by MTT assay
# Type: toxicity, cell-based
reportedEndpoint: IC50 at 24 h

Recorded results for 4 compounds are shown here.
structureString | IC50 at 24 h
CCCc1nn(C)c2c(N3CCCC3)nc(-c3ccc([N+](=O)[O-])o3)nc12 | > 50 µg/mL
CCCc1nn(C)c2c(N3CCN(C)CC3)nc(-c3ccc([N+](=O)[O-])o3)nc12 | > 50 µg/mL
CCCc1nn(C)c2c(NCc3ccccc3)nc(-c3ccc([N+](=O)[O-])o3)nc12 | > 50 µg/mL
CCCc1nn(C)c2c(N3CCC(CO)CC3)nc(-c3ccc([N+](=O)[O-])o3)nc12 | > 50 µg/mL

Next:
[ask] Tell me its IC50 at 24 h given CCCc1nn(C)c2c(Nc3cccc(F)c3)nc(-c3ccc([N+](=O)[O-])o3)nc12 as the entry.
[reply] 38.9 µg/mL
